Consider the following compounds; for each one, report its inhibition at 1 µM.
Molecular target: human μ opiate receptor (Homo sapiens, UniProt P35372)
Construct: purchased PerkinElmer Life Sciences, Zaventem, Belgium RB-HOM; host or cells: CHO-K1 cells (membrane preparation)
Sequence (P35372 whole entry): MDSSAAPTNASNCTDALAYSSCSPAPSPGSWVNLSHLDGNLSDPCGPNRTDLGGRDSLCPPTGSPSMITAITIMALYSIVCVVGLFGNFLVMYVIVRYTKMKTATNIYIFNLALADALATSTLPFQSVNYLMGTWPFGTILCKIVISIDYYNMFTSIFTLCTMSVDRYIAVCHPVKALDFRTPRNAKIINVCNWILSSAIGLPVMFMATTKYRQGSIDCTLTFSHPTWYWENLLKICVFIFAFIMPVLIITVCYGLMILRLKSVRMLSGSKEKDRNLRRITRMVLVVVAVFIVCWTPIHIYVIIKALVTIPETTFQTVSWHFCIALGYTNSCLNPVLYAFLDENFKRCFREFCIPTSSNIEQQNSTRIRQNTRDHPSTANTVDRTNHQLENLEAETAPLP
Assay: Affinity for the human μ opiate receptor ([3H]-naloxone displacement, CHO-K1 receptor membrane preparation, SPA)
Format: binding
Conditions: 1.5 h, Table 3, to be read in the same way as Table 1; test concentration 1 μM; read-out: μ
One number for each entry, in %.

> print(dat)
                                   compound      assay.endpoint  scale.unit  experimental.value
1  COc1cc(C)c(S(=O)(=O)N(C)CCOCC(=O)N2CCC(C(c3ccccc3)N3CCN(C)CC3)CC2)c(C)c1 (stereo not drawn)  inhibition at 1 µM           %                  19

For every listed record, write down its inhibition at 1 µM.
1. COc1cc(C)c(S(=O)(=O)N(C)CCOCC(=O)N2CCC(C(c3cccc(F)c3)N3CCN(C)CC3)CC2)c(C)c1 (stereo not drawn)
2. O=C(COCC1CCCN(S(=O)(=O)c2c(Cl)cc(Cl)cc2Cl)C1)NCC1CCC(C(CCc2ccccc2)N2CCCC2)CC1 (stereo not drawn)
3. COc1cc(C)c(S(=O)(=O)N(C)CCOCC(=O)NC2CCC(C(c3ccccc3)N3CCCC3)CC2)c(C)c1 (stereo not drawn)
4. CN(CCOCC(=O)NCC1CCC(C(c2ccccc2)N2CCCC2)CC1)S(=O)(=O)c1c(Cl)cc(C(F)(F)F)cc1Cl (stereo not drawn)
5. O=C(COCC1CCCCN1S(=O)(=O)c1c(Cl)cc(Cl)cc1Cl)NCC1CCC(C(CCc2ccccc2)N2CCCC2)CC1 (stereo not drawn)

16
87
36
49
62
